These data points were gathered from ChEMBL document CHEMBL4196213.

Procedure text: AUC (0 to t) in mouse at 2 mg/kg, iv
Format: ADME, organism-based
Condition label: in vivo
Measurement kind: AUC(0-t) (ng·h/mL)
A number alone suffices; assume ng·h/mL.

Prompt: Name the reported AUC(0-t) value associated with the compound Cn1cc(Nc2nc(N)nc(-c3cccc(-n4ccc5cc(C6CC6)cc(F)c5c4=O)c3CO)n2)cn1 [SOFNOBRUTINIB]
Response: 3110

====

Procedure text: Cmax in rat at 1 mg/kg, iv
Format: ADME, organism-based
Set-up: dose 1 mg/kg, route intravenous
Condition label: in vivo
Measurement kind: Cmax (ng/mL)
A number alone suffices; assume ng/mL.

Prompt: Name the reported Cmax value associated with the molecule Cn1cc(Nc2nc(N)nc(-c3cccc(-n4ccc5cc(C6CC6)cc(F)c5c4=O)c3CO)n2)cn1 [SOFNOBRUTINIB]
Response: 1380
